target: ERK2 enzyme (Homo sapiens (Human)); experiment: Inhibition assay of ERK (Z'-LYTE kinase assay, Ser/Thr 3 peptide substrate); assay type: biochemical; settings: In vitro, ERK2 enzyme 0.47 ng/μL, 100 μM ATP
pIC50: −log10 of the molar value.
measure name: pIC50

Cc1cc(-c2n[nH]c3cc4c(cc23)CN(CC2CCCN(Cc3ccccc3)C2)C(=O)N4)ccn1 (stereo not drawn) = 6.60 to 7.30
Cc1cc(-c2n[nH]c3cc4c(cc23)CN([C@H]2CCCN(Cc3ccccc3)C2)C(=O)N4)cc(C)n1 = > 7.30
Cc1cc(-c2n[nH]c3cc4c(cc23)CN([C@@H]2CCCN(C(C)C)C2)C(=O)N4)ccn1 = > 7.30
Cc1ncc(-c2n[nH]c3cc4c(cc23)CN([C@@H]2CCCN(Cc3ccccc3)C2)C(=O)N4)cn1 = > 7.30
Cc1cc(-c2n[nH]c3cc4c(cc23)CN(C2CCC(F)(F)CC2)C(=O)N4)ccn1 = > 7.30
Cc1cc(-c2n[nH]c3cc4c(cc23)CN([C@@H]2CN(CC(F)(F)F)C[C@H]2C2CC2)C(=O)N4)ccn1 (mixture of isomers) = 6.60 to 7.30
Cc1cc(-c2n[nH]c3cc4c(cc23)CN(C2CCCCC2)C(=O)N4)ccn1 = > 7.30
Cc1ncc(-c2n[nH]c3cc4c(cc23)CN([C@@H]2CCN(CC(F)(F)F)C2)C(=O)N4)cn1 = > 7.30

Query: May I ask what pIC50 has been recorded for CC(c1ccccc1)c1cc2cc3c(-c4cnc(N)nc4)n[nH]c3cc2[nH]c1=O (stereo not drawn) ?
Result: > 7.30

Query: May I ask what pIC50 has been recorded for Cc1cc(-c2n[nH]c3cc4c(cc23)CN([C@@H]2CCCN(Cc3ccsc3)C2)C(=O)N4)ccn1 ?
Result: > 7.30

Query: May I ask what pIC50 has been recorded for Cc1cc(-c2n[nH]c3cc4c(cc23)CN([C@@H]2CN(CC(F)(F)F)C[C@H]2c2cccs2)C(=O)N4)ccn1 (mixture of isomers) ?
Result: > 7.30

Query: May I ask what pIC50 has been recorded for COc1ncc(-c2n[nH]c3cc4c(cc23)CN([C@@H]2CN(CC(F)(F)F)C[C@H]2c2ccccc2)C(=O)N4)cn1 ?
Result: > 7.30

Query: May I ask what pIC50 has been recorded for CC(c1ccccc1)c1cc2cc3c(-c4ccc(N5CCOCC5)nc4)n[nH]c3cc2[nH]c1=O (stereo not drawn) ?
Result: 6.60 to 7.30

Query: May I ask what pIC50 has been recorded for Cc1cc(-c2n[nH]c3cc4c(cc23)CN(C(C)C2CCOCC2)C(=O)N4)ccn1 (stereo not drawn) ?
Result: > 7.30

Query: May I ask what pIC50 has been recorded for Cc1cc(-c2n[nH]c3cc4c(cc23)CN(CC2CC2)C(=O)N4)ccn1 ?
Result: > 7.30

---

biological target: ERK2 enzyme (Homo sapiens (Human)); assay: Inhibition assay of ERK (Z'-LYTE kinase assay, Ser/Thr 3 peptide substrate); assay type: biochemical; details: In vitro ERK2 enzyme, 100 μM ATP
measure name: IC50

Field: example entries. Status: answers known.
COc1ncc(-c2n[nH]c3cc4c(cc23)CN(CCCN)C(=O)N4)cn1 [Compound 112] = < 0.05 µM
Cc1cc(-c2n[nH]c3cc4[nH]c(=O)n(CCc5ccccc5)c4cc23)ccn1 [Compound 20] = 0.05 to 0.25 µM

Query: May I ask what IC50 has been recorded for O=C1Nc2cc3[nH]nc(-c4ccnnc4)c3cc2CN1CCc1ccc(F)cc1 [Compound 110] ?
Result: < 0.05 µM

Query: May I ask what IC50 has been recorded for O=C1Nc2cc3[nH]nc(-c4cccnc4)c3cc2CN1Cc1cccc(Cl)c1 [Compound 57] ?
Result: < 0.05 µM

Query: May I ask what IC50 has been recorded for Cc1ccc(CN2CCC[C@@H](N3Cc4cc5c(-c6ccnc(C)c6)n[nH]c5cc4NC3=O)C2)cn1 [Compound 131] ?
Result: 0.05 to 0.25 µM

Query: May I ask what IC50 has been recorded for COc1ccc(-c2n[nH]c3cc4c(cc23)CN([C@H](C)c2cccc(Cl)c2)C(=O)N4)cn1 [Compound 74] ?
Result: 0.05 to 0.25 µM

Query: May I ask what IC50 has been recorded for Cc1cc(-c2n[nH]c3cc4c(cc23)CN(Cc2ccc(F)cc2)C(=O)N4)ccn1 [Compound 30] ?
Result: < 0.05 µM

Query: May I ask what IC50 has been recorded for N#Cc1ccc(-c2n[nH]c3cc4c(cc23)CN(Cc2cccc(Cl)c2)C(=O)N4)cc1 [Compound 94] ?
Result: 0.05 to 0.25 µM

Query: May I ask what IC50 has been recorded for Cc1cc(-c2n[nH]c3cc4c(cc23)CN(Cc2cccc(Cl)c2)C(=O)N4)ccn1 [Compound 4] ?
Result: < 0.05 µM

---

Biological target: UniProtKB P28482
Test: Inhibition assay of ERK (Z'-LYTE kinase assay, Ser/Thr 3 peptide substrate)
Type: biochemical
Details: In vitro, ERK2 enzyme 0.47 ng/μL, 100 μM ATP
Procedure: The inhibition of ERK activity by the compounds disclosed herein was determined using the Z′-LYTE kinase assay kit (Life Technologies) with a Ser/Thr 3 peptide substrate (Life Technologies) according to manufacturers' instructions. […] The IC50 values for the compounds were determined with 3-fold serial dilutions in duplicate. […] The final DMSO concentration in the assay was 1%. Final reaction volume was 20 μL/well in 384-well plates. […]
pIC50: −log10 of the molar value.
measure name: pIC50

Query: May I ask what pIC50 has been recorded for Cc1cc(-c2n[nH]c3cc4c(cc23)CN([C@@H]2CCCN(CC(O)C(C)(C)C)C2)C(=O)N4)ccn1 (stereo partly shown) ?
Result: 6.60 to 7.30

Query: May I ask what pIC50 has been recorded for Cc1cc(-c2n[nH]c3cc4c(cc23)CN([C@@H]2CCCN(c3cccc(C)n3)C2)C(=O)N4)ccn1 ?
Result: 6.60 to 7.30

Query: May I ask what pIC50 has been recorded for CC(c1ccccc1)c1cc2cc3c(-c4ccc(=O)n(C)c4)n[nH]c3cc2[nH]c1=O (stereo not shown) ?
Result: > 7.30

Query: May I ask what pIC50 has been recorded for Cc1cc(-c2n[nH]c3cc4c(cc23)CN([C@@H]2CCCN(c3ccc(F)cn3)C2)C(=O)N4)ccn1 ?
Result: > 7.30

Query: May I ask what pIC50 has been recorded for Cc1cc(-c2n[nH]c3cc4c(cc23)CN(Cc2ccc(C(F)(F)F)cc2)C(=O)N4)cc(C)n1 ?
Result: > 7.30

Query: May I ask what pIC50 has been recorded for Cc1cc(-c2n[nH]c3cc4[nH]c(=O)c([C@@H](C)c5ccc(F)cc5)cc4cc23)ccn1 ?
Result: 6.60 to 7.30

Query: May I ask what pIC50 has been recorded for COc1ncc(-c2n[nH]c3cc4c(cc23)CN(C2CN(Cc3ccccc3)CC(F)(F)C2)C(=O)N4)cn1 (stereo not shown) ?
Result: 6.60 to 7.30

---

molecular target: ERK2 enzyme (Homo sapiens (Human), UniProt P28482); experiment: Inhibition assay of ERK (Z'-LYTE kinase assay, Ser/Thr 3 peptide substrate); assay type: biochemical; conditions: In vitro ERK2 enzyme, 100 μM ATP
Sequence (P28482 whole entry): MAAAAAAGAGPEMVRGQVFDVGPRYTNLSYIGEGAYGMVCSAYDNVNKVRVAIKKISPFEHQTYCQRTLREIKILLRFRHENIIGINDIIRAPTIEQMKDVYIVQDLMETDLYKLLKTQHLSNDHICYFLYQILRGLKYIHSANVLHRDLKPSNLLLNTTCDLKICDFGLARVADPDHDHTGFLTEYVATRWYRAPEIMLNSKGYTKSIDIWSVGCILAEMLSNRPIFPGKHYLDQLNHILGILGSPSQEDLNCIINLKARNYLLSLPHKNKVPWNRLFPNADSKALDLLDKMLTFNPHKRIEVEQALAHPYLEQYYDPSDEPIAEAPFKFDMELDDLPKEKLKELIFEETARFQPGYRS
pIC50: −log10 of the molar value.
measure name: pIC50

Cc1cc(-c2n[nH]c3cc4c(cc23)CN([C@@H]2CCCN(C(C)c3ccccc3)C2)C(=O)N4)ccn1 (stereo partly shown) = > 7.30

Query: May I ask what pIC50 has been recorded for CS(=O)(=O)c1ccc(-c2n[nH]c3cc4c(cc23)CN(Cc2cccc(Cl)c2)C(=O)N4)cc1 ?
Result: > 7.30

Query: May I ask what pIC50 has been recorded for Cc1cc(-c2n[nH]c3cc4[nH]c(=O)n(Cc5ccc(F)c(Cl)c5)c(=O)c4cc23)ccn1 ?
Result: 6.60 to 7.30

Query: May I ask what pIC50 has been recorded for Cc1cc(-c2n[nH]c3cc4c(cc23)CN([C@H](C)CO)C(=O)N4)ccn1 ?
Result: > 7.30

Query: May I ask what pIC50 has been recorded for COc1ncc(-c2n[nH]c3cc4c(cc23)CN(C)CC(=O)N4)cn1 ?
Result: < 6.00

Query: May I ask what pIC50 has been recorded for Cc1cc(-c2n[nH]c3cc4c(cc23)CN(CCN(C)C)C(=O)N4)ccn1 ?
Result: 6.60 to 7.30

Query: May I ask what pIC50 has been recorded for Cc1cc(-c2n[nH]c3cc4c(cc23)CN([C@@H]2CCN(Cc3ccccc3)C2)C(=O)N4)ccn1 ?
Result: > 7.30

Query: May I ask what pIC50 has been recorded for Cc1cc(-c2n[nH]c3cc4c(cc23)CN(CCNCc2ccccc2)C(=O)N4)ccn1 ?
Result: > 7.30

Query: May I ask what pIC50 has been recorded for N#Cc1cccc(CN2Cc3cc4c(-c5ccnnc5)n[nH]c4cc3NC2=O)c1 ?
Result: > 7.30

Query: May I ask what pIC50 has been recorded for Cc1cc(-c2n[nH]c3cc4c(cc23)CN(CCNCc2cccc(Cl)c2)C(=O)N4)ccn1 ?
Result: > 7.30

Query: May I ask what pIC50 has been recorded for Cc1cc(-c2n[nH]c3cc4c(cc23)CN([C@@H]2CCCN(Cc3sc(C)nc3C)C2)C(=O)N4)ccn1 ?
Result: 6.60 to 7.30

Query: May I ask what pIC50 has been recorded for Cc1cc(-c2n[nH]c3cc4c(cc23)CN([C@@H]2CCCN(CC3CCC3)C2)C(=O)N4)ccn1 ?
Result: 6.60 to 7.30

Query: May I ask what pIC50 has been recorded for Cc1cc(-c2n[nH]c3cc4c(cc23)CN([C@@H]2CCCN(Cc3ccc(F)c(F)c3)C2)C(=O)N4)ccn1 ?
Result: > 7.30

Query: May I ask what pIC50 has been recorded for Cc1cc(-c2n[nH]c3cc4[nH]c(=O)c([C@H](C)c5ccccc5)cc4cc23)ccn1 ?
Result: > 7.30

Query: May I ask what pIC50 has been recorded for COc1ncc(-c2n[nH]c3cc4c(cc23)CN([C@H](C)c2ccc(Cl)cc2)C(=O)N4)cn1 ?
Result: > 7.30

Query: May I ask what pIC50 has been recorded for Cc1cc(-c2n[nH]c3cc4[nH]c(=O)c(Cc5ccccc5)cc4cc23)ccn1 ?
Result: 6.60 to 7.30
